The measurements presented in this section are drawn from PubChem BioAssay (NCI).

system: SF-268 CNS; assay: NCI-60 one-dose screen, 48 h (100 = growth as untreated, 0 = no growth, -100 = all killed); settings: 10 µM unless noted
This is part of a sample that, as a whole, favours compounds with a hit. Of some 83,000 tested, about 20% had one in any assay.
Param label: returns T when growth < 70%, returns F otherwise, including exact equality.

> print(dat)
                                    compound  group.label
 1                          CCCOC(=O)n1cccc1            F
 2  CN1C(=O)N(C)C2C1NN=c1s/c(=C\c3cccnc3)c(=O)n12 (stereo not given)            F
 3                      Cc1ccc(CSC(=N)N)cc1C            F
 4  CCCCCCCCCCCCNC(=O)[C@H]1CSC(c2cc3ccccc3s2)N1 (stereo not given in full)            T
 5  COc1ccc(/C=C2\N=C(c3ccccc3)N(C(=O)c3ccccc3O)NC2=O)cc1            F
 6  COc1ccc(C(=O)N2NC(=O)/C(=C/c3ccc(F)cc3)N=C2c2ccccc2)cc1            F
 7  COc1cc2c(=O)n(C3CCCCCC3)c3c4cc[nH]c4ncc3c2cc1OC            T
 8  COc1ccc(-c2nc(/C=N/Nc3cc(C)nc4ccc(Cl)cc34)c(C)o2)cc1            T
 9  CN1C(=O)N(C)C2C1NN=c1s/c(=C\C=C\c3ccccc3)c(=O)n12 (stereo not given)            T
10  COc1ccc(OC)c(/C=C2\Oc3cc(OCCCN4CCCC4)ccc3C2=O)c1            F

----------
system: HS 578T breast; assay: NCI-60 one-dose screen, 48 h (100 = growth as untreated, 0 = no growth, -100 = all killed); settings: 10 µM unless noted
About 83,000 compounds went through this panel and 20% of them were active in at least one assay; those are over-represented in the sample as a whole.
measurement type: growth (%)

> print(dat)
                                        mol    assay.system  unit.spec  value.reported
1  Cc1ccc(S(=O)(=O)n2cc(C(=O)C(=O)N3CCOCC3)c3ccccc32)cc1  HS 578T breast          %             101
2  COP(=O)(OC)/C(=N\NS(=O)(=O)c1ccc(C)cc1)c1ccccc1  HS 578T breast          %             123
3  O=[N+]([O-])c1cccc(-c2nc3sccn3c2-c2ccnc(NCCCNS(=O)(=O)c3ccc(C(F)(F)F)cc3)n2)c1  HS 578T breast          %            63.3
4  COC1=C(OC)C(=O)C(CCCCCCCCCC[P+](c2ccccc2)(c2ccccc2)c2ccccc2)=C(C)C1=O  HS 578T breast          %           -58.9
5          Cc1ccc(-c2csc(NC(=O)CCCCl)n2)cc1  HS 578T breast          %             105
6  CCOC(=O)c1c(NS(=O)(=O)c2ccc(C)cc2)sc2c1CCC1(C2)OCCO1  HS 578T breast          %            81.3
7  O=C(Nc1cccc(-n2cc(-c3ccncc3)c(-c3ccc(Cl)c(O)c3)n2)c1)Nc1ccc(Cl)c(C(F)(F)F)c1  HS 578T breast          %           -7.39
8  Cc1ccc(S(=O)(=O)c2nc(-c3ccccc3)oc2S(C)(=O)=O)cc1  HS 578T breast          %            91.2
9  Cc1ccc(S(=O)(=O)NC(=O)n2cc(-c3ccncc3)c(-c3ccc(Cl)c(O)c3)n2)cc1  HS 578T breast          %             107

----------
tested on: LOX IMVI melanoma; assay: NCI-60 one-dose screen, 48 h (100 = growth as untreated, 0 = no growth, -100 = all killed); settings: 10 µM unless noted
About 83,000 compounds went through this panel and 20% of them were active in at least one assay; those are over-represented in the sample as a whole.
So basically, the class depends on measured growth, and the ranges are one: < 50%; two: ≥ 50% and < 90%; three: ≥ 90%

> print(dat)
                                    compound       assay.system  group.label
 1  O=C1/C(=C/c2ccc(Cl)cc2)CN(C(=O)CCN2CCC(=NO)CC2)C/C1=C\c1ccc(Cl)cc1  LOX IMVI melanoma          one
 2  O=C(Oc1ccccc1[N+](=O)[O-])C1CCCN1C(=O)OCc1ccccc1 (stereo unspecified)  LOX IMVI melanoma          two
 3  CC12CCC3C4(C)COC(c5ccco5)OC4CCC3(C)C1CC(C1=CCOC1=O)O2 (stereo unspecified)  LOX IMVI melanoma        three
 4  COc1ccc(S(=O)(=O)n2cc(C(=O)C(=O)Nc3ccncc3)c3ccccc32)cc1F  LOX IMVI melanoma          two
 5  COc1cc(-c2nn(-c3cccc(NC(=O)c4ccc(N5CCOCC5)c(C(F)(F)F)c4)c3)cc2-c2ccncc2)ccc1Cl  LOX IMVI melanoma          one
 6  CCCCCc1cc[n+](CC(=O)c2ccc([N+](=O)[O-])cc2)cc1  LOX IMVI melanoma          one
 7    COc1ccc(-c2cnnn2-c2nonc2-n2cccc2)cc1OC  LOX IMVI melanoma          one
 8  COc1cc(/C=C/C(=O)N2CCN(C(=O)/C=C/c3cc(OC)c(OC)c(OC)c3)CC2)cc(OC)c1OC  LOX IMVI melanoma        three
 9             CCOc1cc2c(Cl)ncnc2c(OCC)c1OCC  LOX IMVI melanoma          two
10  COc1ccc(NC(=O)c2c(Nc3ccc(OC)cc3OC)n[nH]c2N)c(OC)c1  LOX IMVI melanoma        three

----------
Reported growth is given for each of the following compounds.
system: SN12C renal; test: NCI-60 one-dose screen, 48 h (100 = growth as untreated, 0 = no growth, -100 = all killed); conditions: 10 µM unless noted
About 83,000 compounds went through this panel and 20% of them were active in at least one assay; those are over-represented in the sample as a whole.
measurement type: growth (%)

> print(dat)
                                   compound  value.reported
1  CCO/C=N/C1=C(C#N)C(c2ccc(Cl)cc2)c2c(c3ccccc3n(C)c2=O)O1 (stereo not given)            74.6
2  CCCCCCCCCCCCNC(=O)[C@H]1CSC(c2ccsc2)N1 (stereo not given in full)             -87
3  O=S(=O)(NCCNc1nccc(-c2c(-c3ccc(O)cc3)nc3sccn23)n1)c1cccc2ccccc12            97.7
4            C=C[C@@H]1C[C@H](O)Cc2ccccc2N1             103
5  O=C(Nc1cccc(-n2cc(-c3ccncc3)c(-c3ccc(Cl)c(O)c3)n2)c1)Nc1cccc(C(F)(F)F)c1            14.6

----------
Reported growth is given for each of the following compounds.
tested on: MALME-3M melanoma; assay: NCI-60 one-dose screen, 48 h (100 = growth as untreated, 0 = no growth, -100 = all killed); conditions: 10 µM unless noted
This is part of a sample that, as a whole, favours compounds with a hit. Of some 83,000 tested, about 20% had one in any assay.
measurement type: growth (%)

> print(dat)
                                    compound  value.reported
 1  O=S(=O)(NCCNc1nccc(-c2c(-c3cccc(O)c3)nc3sccn23)n1)c1ccc(F)cc1            18.3
 2  CC(C)(C)n1cc(-c2ccnc(NCCCNS(=O)(=O)c3ccc(Cl)cc3)c2)c(-c2cccc(O)c2)n1           -44.5
 3  COc1ccc(C2C(C#N)=C(N)Oc3c2ccc2ccccc32)cc1 (configuration not stated)            47.9
 4  COc1ccc(C2NN=C3c4ccccc4CCC32)cc1 (configuration not stated)            25.4
 5  O=C(CSc1nc2ccccc2[nH]1)c1ccc(N2CCOCC2)cc1             100
 6  O=C1c2c(c3c4ccccc4n(CCCCCCBr)c3c3[nH]c4ccccc4c23)C(=O)N1O             -20
 7  COc1ccc(-c2cn(-c3cccc(C(=O)/C=C/c4cc(OC)c(OC)c(OC)c4)c3)c(=O)[nH]2)cc1OC              86
 8  O=C1CS/C(=N\Nc2cc(=O)[nH]c3ccccc23)N1c1ccccc1            96.9
 9  O=C1/C(=C/c2ccc(Cl)cc2)CN(Cc2cn(CCNc3ccnc4cc(Cl)ccc34)nn2)C/C1=C\c1ccc(Cl)cc1           -69.5
10  Clc1ccc2c(NC3CCC(NC4CCCCC4)CC3)ccnc2c1 (configuration not stated)            34.6
11                 Cn1ccc(=O)c(S(N)(=O)=O)c1            95.5
12        C=C[C@@H]1C[C@@H]2Cc3cc(F)ccc3N1O2             170
